Answer each item with its documented GI50.
# Tested on: SK-OV-3
# Measurement notes: NCI tumour cell line growth inhibition, 48 h
Active and inactive are the calls of the source. Cut-off read from the data, not from the text of the source: active = GI50 up to about 1.1 µM and inactive = higher.

Recorded GI50 for C=CCN1C(=O)/C(=C/c2ccccc2)N=C1SC/C=C/C , please? > 100 µM (inactive)

Okay, and CCOC1=C2N=C(Cc3ccc(F)cc3)NC2C(=O)c2ccccc21 (configuration not stated) ? 38.2 µM (inactive)

Okay, and COc1cc2c(c(C)c1O)[C@H]1COc3ccccc3[C@H]1O2 ? 31.8 µM (inactive)

Okay, and O=c1[nH]c(Nc2cccc(C(F)(F)F)c2)nc2[nH]cnc12 ? > 100 µM (inactive)

Okay, and COC(=O)CCC(C)C1CCC2C3C(C[C@H](OC(C)=O)[C@]12C)[C@@]1(C)CCC2(C[C@H]1C[C@H]3OC(C)=O)OOC1(CC[C@]3(C)C4C[C@H](OC(C)=O)[C@]5(C)C(C(C)CCC(=O)OC)CCC5C4[C@H](OC(C)=O)C[C@@H]3C1)OO2 (some centres not stated) ? > 100 µM (inactive)

Okay, and Cc1ccnc(NC(=S)Nc2ccc([N+](=O)[O-])cc2)c1 ? 37.9 µM (inactive)

Okay, and O=C(Nc1ccc(Br)c2ccccc12)c1ccc2ccccc2c1O ? 2.75 µM (inactive)

Okay, and S=C1NC2=C(COC/C2=C\c2ccccc2Cl)C(c2ccccc2Cl)N1 (configuration not stated) ? > 100 µM (inactive)

Okay, and O=C1CN(c2ccccc2)C(=O)C1C(=O)Nc1ccc(Cl)c(Cl)c1 (configuration not stated) ? 5.19 µM (inactive)

Okay, and O=C1/C(=C/c2ccccc2Cl)COc2ccc(Br)cc21 ? 27 µM (inactive)

Okay, and C[C@]12CC[C@H](OC(=O)Cc3ccc(N(CCCl)CCCl)cc3)CC1CC[C@@H]1C2CC[C@]2(C)NC(=O)CCC12 (some centres not stated) ? 17 µM (inactive)

Okay, and CCCCCCCSCC1C(=O)C23C(O)C1CCC2C12COC3(O)C(O)C1C(C)(C)CCC2O (configuration not stated) ? 18.1 µM (inactive)

Okay, and C=CCCCCCCCCCCCC1CCC(CC)N1 (configuration not stated) ? 15.1 µM (inactive)

Okay, and O=S(=O)(O)c1ccc2c(/N=N/c3c(O)ccc4ccccc34)cccc2c1 ? > 100 µM (inactive)

Okay, and CC(C)(Oc1ccc(C(=O)c2ccc(Cl)cc2)cc1Cl)C(=O)N1CCN(CCO)CC1 ? > 10 µM (inactive)

Okay, and CCCCCCCCCCCCCC(=O)OCC1OC(n2cc(F)c(=O)[nH]c2=O)C(N)C(OC(=O)CCCCCCCCCCCCC)C1O (configuration not stated) ? > 100 µM (inactive)

Okay, and O=C(/C=C/c1ccccc1O)c1ccccc1O ? > 100 µM (inactive)

Okay, and Clc1nc(-c2ccccc2)nc(Cl)c1Cl ? 14 µM (inactive)

Okay, and COc1cc2c(cc1OC)C(Cl)C(c1cc(OC)c(OC)c(OC)c1)=C2Cl (configuration not stated) ? 28.4 µM (inactive)

Okay, and CC(c1ccccc1)N1O[C@]12CC[C@@]1(C)C(CCCC13OCCO3)C2 (some centres not stated) ? > 100 µM (inactive)

Okay, and NC(CSCc1ccc(I)cc1)C(=O)O (configuration not stated) ? > 100 µM (inactive)

Okay, and CCOC(=O)NC(Nc1ccc(S(=O)(=O)Nc2ncccn2)cc1)(C(=O)OCC)C(F)(F)F (configuration not stated) ? > 100 µM (inactive)
